Measured IC50 of individual entries
# Study System: GSK3β (Homo sapiens)
# Sequence (P49841 whole entry, species assumed): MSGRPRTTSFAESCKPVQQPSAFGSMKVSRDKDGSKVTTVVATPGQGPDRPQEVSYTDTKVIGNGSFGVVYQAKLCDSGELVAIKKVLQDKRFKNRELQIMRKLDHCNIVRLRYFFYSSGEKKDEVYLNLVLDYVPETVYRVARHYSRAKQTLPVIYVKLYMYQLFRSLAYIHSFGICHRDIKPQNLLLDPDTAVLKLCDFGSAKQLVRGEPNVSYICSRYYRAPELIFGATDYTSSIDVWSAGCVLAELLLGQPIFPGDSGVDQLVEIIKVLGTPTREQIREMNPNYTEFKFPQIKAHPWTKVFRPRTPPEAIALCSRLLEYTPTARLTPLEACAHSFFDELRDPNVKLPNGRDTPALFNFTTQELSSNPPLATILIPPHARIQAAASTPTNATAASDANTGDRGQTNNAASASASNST
# Assay Remarks: GSK3β kinase assay (Caliper LabChip3000, fluoresceinated peptide substrate)
# Format: biochemical
# Test Context: first value of cell; 250 pM enzyme, 20 uM ATP, 20 hours room temperature; read-out: GSK3β/α (nM): GSK3β IC50
# Method: The kinase assay was performed in V-bottom 384-well plates. […] The reaction mixture was analyzed on the Caliper LabChip3000 (Caliper, Hopkinton, Mass.) by electrophoretic separation of the unphosphorylated substrate and phosphorylated product. […] Compounds were dissolved at 10 mM in dimethylsulfoxide (DMSO) and evaluated at eleven concentrations. […]
Outcome Measure: IC50 (nM)

> print(dat)
                                   compound  outcome.measure   u  recorded.number
1  O=C1Nc2cnc(F)cc2N2CCN(CC=CCC(O)C3(CC3)Nc3nccc1n3)CC2 (mixture of isomers)             IC50  nM             1270
2  O=C1Nc2cnc(F)cc2N2CCN(C/C=C\CCC(O)CNc3nccc1n3)CC2 (centres unmarked)             IC50  nM               29
3  O=C1Nc2cnc(F)cc2N2CCN(C/C=C/CCCNc3nccc1n3)CC2 (single isomer, unassigned)             IC50  nM              0.5
4  C[C@@H]1Nc2nccc(n2)C(=O)Nc2cnc(F)cc2N2CCN(C/C=C/CC1O)CC2 (single isomer, unassigned)             IC50  nM             10.8
5            O=C1Nc2cnccc2OCCCCCCNc2nccc1n2             IC50  nM              5.2
6        O=C1Nc2cnccc2OCC/C=C/CCCNc2nccc1n2             IC50  nM              1.3
7             O=C1Nc2cnccc2OCCCCCNc2nccc1n2             IC50  nM             28.6
8           O=C1Nc2cnccc2OCCCCCCCNc2nccc1n2             IC50  nM              3.1

---

Measured IC50 of individual entries
# Study System: GSK3α (Homo sapiens, UniProt P49840)
# Sequence (P49840 whole entry, species assumed): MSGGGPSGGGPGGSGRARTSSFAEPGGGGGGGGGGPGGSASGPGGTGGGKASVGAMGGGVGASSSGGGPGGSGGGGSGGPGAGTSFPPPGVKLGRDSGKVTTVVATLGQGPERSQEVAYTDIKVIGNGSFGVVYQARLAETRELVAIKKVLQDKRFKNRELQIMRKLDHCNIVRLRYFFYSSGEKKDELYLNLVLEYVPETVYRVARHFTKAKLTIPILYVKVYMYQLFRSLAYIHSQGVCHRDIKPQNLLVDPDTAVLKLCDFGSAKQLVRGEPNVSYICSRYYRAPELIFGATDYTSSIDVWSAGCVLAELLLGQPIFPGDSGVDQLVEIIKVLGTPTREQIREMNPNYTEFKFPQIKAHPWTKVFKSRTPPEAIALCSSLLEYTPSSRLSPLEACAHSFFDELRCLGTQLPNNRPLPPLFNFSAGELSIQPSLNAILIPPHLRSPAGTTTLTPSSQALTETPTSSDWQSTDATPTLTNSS
# Assay Remarks: GSK3α kinase assay (Caliper LabChip3000, fluoresceinated peptide substrate)
# Format: biochemical
# Test Context: second value of cell; 250 pM enzyme, 20 uM ATP, 20 hours room temperature; read-out: GSK3β/α (nM): GSK3α IC50
# Experimental: The kinase assay was performed in V-bottom 384-well plates. […] The reaction mixture was analyzed on the Caliper LabChip3000 (Caliper, Hopkinton, Mass.) by electrophoretic separation of the unphosphorylated substrate and phosphorylated product. […] Compounds were dissolved at 10 mM in dimethylsulfoxide (DMSO) and evaluated at eleven concentrations. […]
Outcome Measure: IC50 (nM)

> print(dat)
                                    molecule                          study.system  outcome.measure  recorded.number
 1  O=C1Nc2cnc(F)cc2N2CCOC(/C=C/CCCNc3nccc1n3)C2 (centres unmarked)  GSK3α (Homo sapiens, UniProt P49840)             IC50             20.2
 2           O=C1Nc2cnccc2OCCCCCCCNc2nccc1n2  GSK3α (Homo sapiens, UniProt P49840)             IC50              6.7
 3  CC1(O)CCCCCOc2ccncc2NC(=O)c2ccnc(n2)NC1 (centres unmarked)  GSK3α (Homo sapiens, UniProt P49840)             IC50              3.2
 4  O=C1Nc2cnc(F)cc2N2CCN(C/C=C\CCC(O)CNc3nccc1n3)CC2 (centres unmarked)  GSK3α (Homo sapiens, UniProt P49840)             IC50             30.4
 5  CC1(O)CC=CCCOc2ccncc2NC(=O)c2ccnc(n2)NC1 (mixture of isomers)  GSK3α (Homo sapiens, UniProt P49840)             IC50              4.7
 6  O=C1Nc2cnc(F)cc2N2CCN(CC=CCC(O)C3(CC3)Nc3nccc1n3)CC2 (mixture of isomers)  GSK3α (Homo sapiens, UniProt P49840)             IC50             2000
 7  C[C@@H]1Nc2nccc(n2)C(=O)Nc2cnc(F)cc2N2CCN(C/C=C/CC1O)CC2 (single isomer, unassigned)  GSK3α (Homo sapiens, UniProt P49840)             IC50             18.5
 8        O=C1Nc2cnccc2OCC/C=C/CCCNc2nccc1n2  GSK3α (Homo sapiens, UniProt P49840)             IC50              3.3
 9  O=C1Nc2cnc(F)cc2N2CCN(CCCCCCNc3nccc1n3)CC2  GSK3α (Homo sapiens, UniProt P49840)             IC50              3.6
10  O=C1Nc2cnc(F)cc2N2CCOC(CCCCCNc3nccc1n3)C2 (centres unmarked)  GSK3α (Homo sapiens, UniProt P49840)             IC50               34
11            O=C1Nc2cnccc2OCCCCCCNc2nccc1n2  GSK3α (Homo sapiens, UniProt P49840)             IC50              6.2
12  O=C1Nc2cnccc2OCCC=CCNc2nccc1n2 (mixture of isomers)  GSK3α (Homo sapiens, UniProt P49840)             IC50             12.1
13  O=C1Nc2cnc(F)cc2N2CCN(C/C=C/CC(F)CNc3nccc1n3)CC2 (centres unmarked)  GSK3α (Homo sapiens, UniProt P49840)             IC50             15.5
14  O=C1Nc2cnc(F)cc2N2CCN(C/C=C/CC(O)CNc3nccc1n3)CC2 (centres unmarked)  GSK3α (Homo sapiens, UniProt P49840)             IC50              4.3
